Entries and their measured EC50 follow.
# Tested on: L. major amastigote
# experimental-details: L. major amastigote assay
# Assay type: cell-based
# cond: Leishmania major
Structures can show the parent of a compound that is named as a salt.
attribute-measured: EC50 (µM)

- Fc1cccc(COc2ccc(Nc3ncnc4ccc(-c5cccc(N6CCOCC6)c5)cc34)cc2Cl)c1 [Compound 23a]: 8
- CS(=O)(=O)c1ccc(-c2ccc3ncnc(Nc4ccc(OCc5cccc(F)c5)c(Cl)c4)c3c2)cc1 [Compound 10t]: 3.9
- O=S(=O)(c1ccc(-c2ccc3ncnc(Nc4ccc(OCc5cccc(Br)c5)c(Cl)c4)c3c2)cc1)N1CCOCC1 [Compound 20f, Hydrochloride]: 0.47
- O=C(c1ccc(-c2ccc3ncnc(Nc4ccc(OCc5cccc(F)c5)c(Cl)c4)c3c2)cc1)N1CCCCC1 [Compound 23l]: 2.9
